Target: human GRP receptor (human, UniProt P30550 1-384)
Sequence (P30550 whole entry): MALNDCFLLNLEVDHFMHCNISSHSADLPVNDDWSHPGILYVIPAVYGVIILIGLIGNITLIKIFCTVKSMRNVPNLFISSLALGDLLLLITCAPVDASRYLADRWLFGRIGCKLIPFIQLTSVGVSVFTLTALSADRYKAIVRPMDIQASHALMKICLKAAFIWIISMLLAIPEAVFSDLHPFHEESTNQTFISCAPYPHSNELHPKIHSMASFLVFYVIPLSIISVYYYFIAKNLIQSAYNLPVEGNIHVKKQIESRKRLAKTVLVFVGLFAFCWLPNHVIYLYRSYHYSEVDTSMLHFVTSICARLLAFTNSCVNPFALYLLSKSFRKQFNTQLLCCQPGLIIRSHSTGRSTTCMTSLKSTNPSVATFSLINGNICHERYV
Assay: cell-based or functional assay
Starred links: 1 amine or outer side, 2 acyl side, 3 side chain; linkers in the order of their positions; H or OH if unused. Non-standard residues stand in square brackets, D forms with d. *: point of attachment. Trp(7-Me) = Cc1cccc2c(C[C@H](N)C(=O)O)c[nH]c12; C18 diacid = O=C(O)CCCCCCCCCCCCCCCCC(=O)*; γGlu = O=C(O)[C@H](CCC(=O)[*:2])N[*:1]; Nle = CCCC[C@H](N)C(=O)O; AEEA = NCCOCCOCC(=O)O; βAla = NCCC(=O)O; Sar = CNCC(=O)O
Listed here: items and their measured hIP1 GRPR EC50.
Express your answer in nM, writing the number without its unit.

{C18 diacid}-[γGlu][AEEA][AEEA]QHWAV[βAla]HL[Nle]-NH2 (SMILES CCCC[C@H](NC(=O)[C@H](CC(C)C)NC(=O)[C@H](Cc1c[nH]cn1)NC(=O)CCNC(=O)[C@@H](NC(=O)[C@H](C)NC(=O)[C@H](Cc1c[nH]c2ccccc12)NC(=O)[C@H](Cc1c[nH]cn1)NC(=O)[C@H](CCC(N)=O)NC(=O)COCCOCCNC(=O)COCCOCCNC(=O)CC[C@H](NC(=O)CCCCCCCCCCCCCCCCC(=O)O)C(=O)O)C(C)C)C(N)=O) [Peptide 152] ... 3.9

We next turn to a different binder, shown below.
Q: Recorded hIP1 GRPR EC50 of {C18 diacid}-[γGlu][AEEA][AEEA][AEEA][AEEA]GNH[Trp(7-Me)]AV[dA]HL[Nle][Sar]-NH2 (SMILES CCCC[C@H](NC(=O)[C@H](CC(C)C)NC(=O)[C@H](Cc1c[nH]cn1)NC(=O)[C@@H](C)NC(=O)[C@@H](NC(=O)[C@H](C)NC(=O)[C@H](Cc1c[nH]c2c(C)cccc12)NC(=O)[C@H](Cc1c[nH]cn1)NC(=O)[C@H](CC(N)=O)NC(=O)CNC(=O)COCCOCCNC(=O)COCCOCCNC(=O)COCCOCCNC(=O)COCCOCCNC(=O)CC[C@H](NC(=O)CCCCCCCCCCCCCCCCC(=O)O)C(=O)O)C(C)C)C(=O)N(C)CC(N)=O) [Peptide 103] , please.
Result: 345
